Here's what we have: pIC50 numbers for ZVpro (Zika virus NS2B-NS3 protease) (Zika virus).
pIC50: −log10 of the molar value.

Structure Smiles String: O=C(NCC1CCNCC1)c1cc2cc(-c3cccnc3)ccc2[nH]1
Measurement Target: ZVpro (Zika virus NS2B-NS3 protease) (Zika virus)
Quantity Measured: pIC50
Endpoint Value: < 4.30

Structure Smiles String: O=C(NCC1CCNCC1)c1c[nH]c2ccc(-c3ccc(F)cc3)cc12
Measurement Target: ZVpro (Zika virus NS2B-NS3 protease) (Zika virus)
Quantity Measured: pIC50
Endpoint Value: < 4.30

Output pIC50 of "CC(C)(C)c1ccc(-c2ccc3sc(C(=O)NC4CCNCC4)cc3c2)cc1"
5.49

Dear colleague, please send me the reported pIC50 for "O=C(NCC1CCNCC1)c1cc2ccc(-c3ccc(OC(F)(F)F)cc3)cc2[nH]1" when you can.
5.49

Hello, please tell me recorded pIC50 for this one: "CC(C)(C)c1ccc(-c2ccc3c(ccn3Cc3ccc(-c4ccncc4)cc3)c2)cc1"
< 4.30

Identify measured pIC50 associated with "O=C(NCC1CCNCC1)c1c[nH]c2cc(-c3ccccc3F)ccc12"
< 4.30

Recall and state the measured pIC50 for "O=C(NCC1CCNCC1)c1c[nH]c2ccc(-c3ccc(F)cc3F)cc12" .
< 4.30

Please give measured pIC50 of the following entry: "CC(C)(C)c1ccc(-c2ccc3c(C(=O)NCC4CCNCC4)c[nH]c3n2)cc1"
5.04

Consider the compound "N#Cc1ccc(-c2ccc3c(C(=O)NC4CCNCC4)coc3c2)cc1" . State its measured pIC50.
< 4.30

---

Listed compounds paired with reported IC50
Measurement Target: ZVpro (Zika virus NS2B-NS3 protease) (Zika virus)

Below are worked cases with known answers.
Compound: CC(C)(C)c1ccc(-c2ccc3[nH]c(C(=O)NCC4CCNCC4)nc3c2)cc1 [Compound 10]
IC50: 3.1 µM
//
Compound: COc1cc(-c2ccc3c(C(=O)NCC4CCNCC4)c[nH]c3c2)cc(OC)c1OC [Compound 19]
IC50: > 50 µM
//
Compound: COc1cc(-c2ccc3[nH]cc(C(=O)NC4CCNCC4)c3c2)cc(OC)c1OC [Compound 15]
IC50: > 50 µM
//
Compound: CC(C)(C)c1ccc(-c2ccc3c(ccn3Cc3ccc(-c4ccoc4)cc3)c2)cc1 [Compound 4]
IC50: > 50 µM
//
Compound: O=Cc1cccc(-c2ccc3[nH]cc(C(=O)NCC4CCNCC4)c3c2)c1 [Compound 18]
IC50: > 50 µM

System ZVpro (Zika virus NS2B-NS3 protease) (Zika virus). Read-out IC50. Item CC(C)(C)c1ccc(-c2ccc3c(C(=O)NC4CCNCC4)coc3c2)cc1 [Compound 13] . Report value.
5.1 µM

GET IC50 | system: ZVpro (Zika virus NS2B-NS3 protease) (Zika virus) | item: CC(C)(C)c1ccc(-c2ccc3cc(C(=O)NCC4CCNCC4)[nH]c3c2)cc1 [Compound 8]
1.3 µM

Identify measured IC50 obtained with ZVpro (Zika virus NS2B-NS3 protease) (Zika virus) for N#Cc1ccc(-c2ccc3[nH]cc(C(=O)NC4CCNCC4)c3c2)cc1 [Compound 14] .
> 50 µM

---

pIC50: −log10 of the molar value.
Entries below carry reported pIC50 on ZVpro (Zika virus NS2B-NS3 protease) (Zika virus, UniProt A0A024B7W1).

Structure Smiles String: NCc1ccc(-c2ccc3c(C(=O)NCC4CCNCC4)c[nH]c3c2)cc1
pIC50: < 4.30
//
Structure Smiles String: O=C(NCC1CCNCC1)c1c[nH]c2cc(-c3ccc(F)cc3)ccc12
pIC50: < 4.30

Give recorded pIC50. "CC(C)(C)c1ccc(-c2ccc3cc(C(=O)NC4CCNCC4)sc3c2)cc1"
5.68
